target: Ba/F3 EGFR Wild-type (Homo sapiens, UniProt P00533)
Sequence (P00533 whole entry, change not shown): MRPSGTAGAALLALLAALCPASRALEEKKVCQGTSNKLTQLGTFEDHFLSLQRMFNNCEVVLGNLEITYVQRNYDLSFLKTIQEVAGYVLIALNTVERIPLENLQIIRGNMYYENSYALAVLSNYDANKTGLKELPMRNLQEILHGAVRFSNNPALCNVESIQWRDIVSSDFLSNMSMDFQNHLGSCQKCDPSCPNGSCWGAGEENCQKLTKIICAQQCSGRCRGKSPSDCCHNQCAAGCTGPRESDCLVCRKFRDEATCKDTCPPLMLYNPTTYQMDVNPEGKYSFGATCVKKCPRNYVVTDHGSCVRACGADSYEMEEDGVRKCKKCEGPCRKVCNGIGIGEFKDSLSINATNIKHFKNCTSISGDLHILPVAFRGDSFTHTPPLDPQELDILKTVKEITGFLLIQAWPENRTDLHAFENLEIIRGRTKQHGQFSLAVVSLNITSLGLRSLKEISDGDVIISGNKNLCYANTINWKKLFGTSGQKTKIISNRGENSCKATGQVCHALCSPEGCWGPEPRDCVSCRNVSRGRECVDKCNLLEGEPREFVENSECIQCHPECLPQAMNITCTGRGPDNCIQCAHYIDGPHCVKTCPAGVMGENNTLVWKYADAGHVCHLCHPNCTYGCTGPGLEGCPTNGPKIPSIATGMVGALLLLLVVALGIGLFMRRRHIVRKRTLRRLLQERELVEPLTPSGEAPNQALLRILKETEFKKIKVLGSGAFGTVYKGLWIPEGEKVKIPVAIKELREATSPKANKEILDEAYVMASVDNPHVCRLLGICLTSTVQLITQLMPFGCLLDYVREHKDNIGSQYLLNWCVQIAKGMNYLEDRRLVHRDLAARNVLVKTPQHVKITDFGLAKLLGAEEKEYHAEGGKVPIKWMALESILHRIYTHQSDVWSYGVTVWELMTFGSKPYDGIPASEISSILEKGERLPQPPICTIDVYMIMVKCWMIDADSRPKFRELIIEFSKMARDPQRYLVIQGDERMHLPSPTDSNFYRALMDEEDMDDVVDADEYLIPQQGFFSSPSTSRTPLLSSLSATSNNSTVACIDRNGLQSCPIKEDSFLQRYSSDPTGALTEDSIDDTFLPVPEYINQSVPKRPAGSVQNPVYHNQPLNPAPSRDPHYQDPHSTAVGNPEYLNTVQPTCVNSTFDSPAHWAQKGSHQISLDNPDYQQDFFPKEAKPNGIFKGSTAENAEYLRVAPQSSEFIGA
method: CellTiter-Glo cell viability, Ba/F3 EGFR wild-type cells
Assay type: cell-based, murine
condition-label: 72 hours, read-out: Ba/F3 EGFR mutant cell (IC50, nM) WT
# label = bin(measured GI50), where bins are lower band = under 500 nM, central band = from 500 nM up to 800 nM, upper band = 800 nM and over

> print(dat)
                                    compound         class
 1  COc1cc(C2CCNCC2)c(C)cc1Nc1ncc(Br)c(Nc2ccc3nccnc3c2NS(C)(=O)=O)n1    upper band
 2  CCc1cc(Nc2ncc(Br)c(Nc3cccc(OC)c3NS(C)(=O)=O)n2)c(OC)cc1N1CCC(N2CCN(C)CC2)CC1  central band
 3  CCc1cc(Nc2ncc(Br)c(Nc3ccc4nccnc4c3N(C)S(C)(=O)=O)n2)c(OC(C)C)cc1C1CCN(C)CC1    upper band
 4  COc1cc(N2CCC(N3CCN(C)CC3)CC2)c(C)cc1Nc1ncc(Br)c(Nc2cccc(OC)c2NS(C)(=O)=O)n1    lower band
 5  COc1cc(N2CCC(N3CCOCC3)CC2)c(C)cc1Nc1ncc(Cl)c(Nc2ccc3nccnc3c2NS(C)(=O)=O)n1    lower band
 6  COc1cc(N2CCC(N3CCCC3)CC2)c(C)cc1Nc1ncc(Cl)c(Nc2ccc3nccnc3c2NS(C)(=O)=O)n1    lower band
 7  CCc1cc(Nc2ncc(Br)c(Nc3ccc4nccnc4c3N(C)S(C)(=O)=O)n2)c(OC)cc1N1CC2(CCN2C(C)C)C1    lower band
 8  COc1cc(C2CCNCC2)ccc1Nc1ncc(F)c(Nc2ccc3nccnc3c2NS(C)(=O)=O)n1    upper band
 9  COc1cc(N2CCNCC2)ccc1Nc1ncc(Cl)c(Nc2ccc3nccnc3c2NS(C)(=O)=O)n1    upper band
10  COc1cc(N2CCC(N(C)C)CC2)c(C)cc1Nc1ncc(Cl)c(Nc2ccc3nccnc3c2NS(C)(=O)=O)n1    lower band
11  CCCc1cc(Nc2ncc(Cl)c(Nc3ccc4c(c3NS(C)(=O)=O)OCCO4)n2)c(OC)cc1N1CCC(N(C)C)CC1  central band
12  CCCc1cc(Nc2ncc(Cl)c(Nc3cccc(OC)c3N(C)S(C)(=O)=O)n2)c(OC)cc1N1CCC(N(C)C)CC1  central band
13  CCCc1cc(Nc2ncc(Cl)c(Nc3cccc(OC)c3NS(C)(=O)=O)n2)c(OC)cc1N1CCC(N2CCOCC2)CC1    upper band
14  CCc1cc(Nc2ncc(Br)c(Nc3cccc(OC)c3N(C)S(C)(=O)=O)n2)c(OC)cc1N1CCC(N2CCN(C)CC2)CC1 [Example C7]  central band
15  CCc1cc(Nc2ncc(Br)c(Nc3ccc4nccnc4c3N(C)S(C)(=O)=O)n2)c(OC)cc1N1CC2CCC1CN2C(C)C (stereo not shown)    lower band
16  COc1cc(N2CCC(N3CCN(C)CC3)CC2)c(C)cc1Nc1ncc(Cl)c(Nc2ccc3nccnc3c2NS(=O)(=O)C2CC2)n1    upper band
17  CCc1cc(Nc2ncc(Cl)c(Nc3ccc4nccnc4c3NS(C)(=O)=O)n2)c(OC)cc1N1CC2(C1)CN(C(C)C)C2  central band
18  CCc1cc(Nc2ncc(Cl)c(Nc3ccc4nccnc4c3N(C)S(C)(=O)=O)n2)c(OC)cc1N1CC2CCC1CN2C(C)C (stereo not shown)    lower band
19  CCc1cc(Nc2ncc(Br)c(Nc3ccc4nccnc4c3NS(C)(=O)=O)n2)c(OC)cc1N1CCC(N2CCN(C)CC2)CC1    upper band
20  COc1cc(N2CCC(N3CCN(C)CC3)CC2)c(C)cc1Nc1ncc(C)c(Nc2ccc3nccnc3c2NS(C)(=O)=O)n1    lower band
21  COc1cc(C2CCNCC2)ccc1Nc1ncc(Cl)c(Nc2ccc3nccnc3c2NC(C)=O)n1    upper band
22  COc1cc(N2CCC(N3CCCC3)CC2)c(C)cc1Nc1ncc(Br)c(Nc2cccc(OC)c2NS(C)(=O)=O)n1  central band
23  COc1cc(N2CCC(N3CCN(C)CC3)CC2)c(C)cc1Nc1ncc(Br)c(Nc2ccc3nccnc3c2NS(C)(=O)=O)n1    lower band
24  CCc1cc(Nc2ncc(Cl)c(Nc3ccc4nccnc4c3N(C)S(C)(=O)=O)n2)c(OC)cc1N1CCC(N2CCOCC2)CC1    upper band
